Reference for the values: patent US20250333397A1

System: HTT mRNA
ASSAY_INFO: RT-qPCR splicing assay, HTT canonical (CJ) and alternative (AJ) junction mRNA
Assay type: cell-based, human
EXPERIMENTAL_SETUP: Homo sapiens, 24 h, Table 3A; A673 or K562 cells, 24 h treatment; read-out: HTT CJ (IC50, decrease in CJ mRNA)

>  <COMPOUND>
COc1cc(-c2ccc(-c3ccc(N4CC[C@H](NC(C)(C)C)C4)nn3)c(O)c2)ncn1

>  <SYSTEM_UNDER_TEST>
HTT mRNA

>  <IC50>
< 100 nM

$$$$
>  <COMPOUND>
Cc1cn(-c2cc(O)c(-c3ccc(N4CC[C@H](NC5CCC5)C4)nn3)cc2F)cn1

>  <SYSTEM_UNDER_TEST>
HTT mRNA

>  <IC50>
< 100 nM

$$$$
>  <COMPOUND>
Cc1nc2ccc(-c3ccc(-c4ccc(N5CCC(NC6CCC6)C5)nn4)c(O)c3)cc2o1 (centres unmarked)

>  <SYSTEM_UNDER_TEST>
HTT mRNA

>  <IC50>
100 to 1000 nM

$$$$
>  <COMPOUND>
Cc1ncc(-c2cc(O)c(-c3ccc(N4CC[C@H](NC5CCC5)C4)nn3)cc2F)o1

>  <SYSTEM_UNDER_TEST>
HTT mRNA

>  <IC50>
< 100 nM

$$$$
>  <COMPOUND>
COc1cc(-c2cc(O)c(-c3ccc(N4CCC(N[C@H]5C[C@@H](F)C5)C4)nn3)cc2F)cnn1 (some centres unmarked)

>  <SYSTEM_UNDER_TEST>
HTT mRNA

>  <IC50>
100 to 1000 nM

$$$$

---

# IC50 per entry
System: HTT mRNA
ASSAY_INFO: RT-qPCR splicing assay, HTT canonical (CJ) and alternative (AJ) junction mRNA
Format: cell-based, human
EXPERIMENTAL_SETUP: Homo sapiens, 24 h, Table 3A; A673 or K562 cells, 24 h treatment; read-out: HTT CJ (IC50, decrease in CJ mRNA)

>  <COMPOUND>
COc1cc(-c2ccc(-c3ccc(N4CC[C@H](N(C)C(C)(C)C)C4)nn3)c(O)c2)cnn1

>  <IC50>
< 100 nM

$$$$
>  <COMPOUND>
Cn1cc2nc(-c3ccc(-c4ccc(N5CCC(NC6CCC6)C5)nn4)c(O)c3)ccc2n1 (centres unmarked)

>  <IC50>
100 to 1000 nM

$$$$
>  <COMPOUND>
Cc1ncc(-c2cc(O)c(-c3ccc(N4CCC(NC5CCCCC5)C4)nn3)cc2F)s1 (centres unmarked)

>  <IC50>
< 100 nM

$$$$
>  <COMPOUND>
COc1cc(-c2ccc(-c3ccc(N4CC[C@@H](NCC5CC5)C4)nn3)c(O)c2)ncn1

>  <IC50>
< 100 nM

$$$$
>  <COMPOUND>
COCCc1cc(-c2ccc(-c3ccc(N4CCC(NC5CCC5)C4)nn3)c(O)c2)cnn1 (centres unmarked)

>  <IC50>
> 10000 nM

$$$$
>  <COMPOUND>
COc1cc(-c2ccc(-c3ccc(N4CC[C@@H](N(C)C5CCC5)C4)nn3)c(O)c2)cnn1

>  <IC50>
< 100 nM

$$$$
>  <COMPOUND>
CC1(NC2CCN(c3ccc(-c4ccc(-c5cn[nH]c5)cc4O)nn3)C2)CC1 (centres unmarked)

>  <IC50>
< 100 nM

$$$$
>  <COMPOUND>
COc1cc(-c2ccc(-c3ccc(N4CC[C@H](NC(C)(C)C)C4)nn3)c(O)c2)cnn1

>  <IC50>
< 100 nM

$$$$
>  <COMPOUND>
COc1cc(-c2cc(O)c(-c3ccc(OC4CC(C)(C)NC(C)(C)C4)nn3)cc2F)cnn1

>  <IC50>
< 100 nM

$$$$
>  <COMPOUND>
COc1cc(-c2cc(O)c(-c3ccc(N4CC[C@H](NC5(C)CCC5)C4)nn3)cc2F)cnn1

>  <IC50>
< 100 nM

$$$$
>  <COMPOUND>
COc1cc(-c2cc(O)c(-c3ccc(N4CC[C@@H](NC5CC5)C4)nn3)cc2F)cnn1

>  <IC50>
100 to 1000 nM

$$$$
